assay: recombinant UMI read abundance after kanamycin selection (control-corrected) (log10(CPM+1)); higher = more efficient recombination; extreme values may be limits of the assay; sequences stand for … in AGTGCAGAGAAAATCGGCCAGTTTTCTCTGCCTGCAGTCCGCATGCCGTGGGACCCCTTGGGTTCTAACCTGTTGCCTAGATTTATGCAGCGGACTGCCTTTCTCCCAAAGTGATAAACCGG…AGGTTGGTTTCACT; site = the 11-nt donor;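 note: IS621 bridge recombinase in Escherichia coli cells against a fixed T5 target plasmid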
Catalogue of recombinant UMI read abundance (log10) values
experimental.endpoint: recombinant UMI read abundance (log10)

CCGGAACCATGGACCGGTTTTCCCGGTAATCCGTATTTGAT (site CAGGAACCTAT) = 0
CTGCTACCATGGACCGGTTTTCCCGGTAATCCGTATTTGCG (site CTGCTACCTCG) = 0.309
AGCAGTACATGGACCGGTTTTCCCGGTAATCCGTATTTGAT (site AGCAGTACTAT) = 1.79
CAAGTCACATGGACCGGTTTTCCCGGTAATCCGTATTTGGG (site CAAGTCACTCG) = 0
TCCCTGACATGGACCGGTTTTCCCGGTAATCCGTATTTGGA (site TCCCTGACTTC) = 0.0122
TAGCCTTCATGGACCGGTTTTCCCGGTAATCCGTATTTGGG (site TAGCCTTCTGC) = 0
AGGAATACATGGACCGGTTTTCCCGGTAATCCGTATTTGCT (site AGGAATACTAG) = 2.18
AGCATTGCATGGACCGGTTTTCCCGGTAATCCGTATTTGAA (site AGCATTGCTTT) = 2.4
TTTCCGACATGGACCGGTTTTCCCGGTAATCCGTATTTGTA (site TTTCCGACTTA) = 0.018
TATCGATCATGGACCGGTTTTCCCGGTAATCCGTATTTGAC (site TATCGATCTGT) = 1.86
CACTGCCCATGGACCGGTTTTCCCGGTAATCCGTATTTGTT (site CACAGCCCTAA) = 0.0209
TGTTCCCCATGGACCGGTTTTCCCGGTAATCCGTATTTGTG (site TGTTCCCCTAA) = 0.00613
GATTATCCATGGACCGGTTTTCCCGGTAATCCGTATTTGCT (site AATTATCCTAG) = 0
ATTAGTGCATGGACCGGTTTTCCCGGTAATCCGTATTTGGT (site AATAGTGCTAC) = 0.125
AGAATGTCATGGACCGGTTTTCCCGGTAATCCGTATTTGGG (site AGAATGTCTCC) = 2.01
TACTCCTCATGGACCGGTTTTCCCGGTAATCCGTATTTGCC (site GACTCCTCTGG) = 0.715
CACAGCCCATGGACCGGTTTTCCCGGTAATCCGTATTTGTT (site CACTGCCCTAA) = 0.018
GATTGCACATGGACCGGTTTTCCCGGTAATCCGTATTTGAC (site GATTGCACTGT) = 1.53
CTTGGTCCATGGACCGGTTTTCCCGGTAATCCGTATTTGCG (site CTTGGTCCTCG) = 0.00731
CGCCGTACATGGACCGGTTTTCCCGGTAATCCGTATTTGCA (site CGCCGTACTCG) = 0.013
CCCCGTCCATGGACCGGTTTTCCCGGTAATCCGTATTTGCA (site CCCCGTCCTTG) = 0.809
CAGAAAACATGGACCGGTTTTCCCGGTAATCCGTATTTGGG (site CAGAAAACTCC) = 0.991
CGCAATCCATGGACCGGTTTTCCCGGTAATCCGTATTTGTT (site CGTAATCCTAA) = 0
GTAGTCGCATGGACCGGTTTTCCCGGTAATCCGTATTTGCG (site GTAGTCTCTCG) = 2
AACGGCCCATGGACCGGTTTTCCCGGTAATCCGTATTTGTT (site GACGGCCCTAA) = 0.0173
AATTATGCATGGACCGGTTTTCCCGGTAATCCGTATTTGCA (site AATTATGCTTT) = 0.00931
CTGTCGACATGGACCGGTTTTCCCGGTAATCCGTATTTGGT (site CTGTCGACTAC) = 0.884
CCCTTCTCATGGACCGGTTTTCCCGGTAATCCGTATTTGTG (site CCCTTCTCTCG) = 0.995
TCCTGTTCATGGACCGGTTTTCCCGGTAATCCGTATTTGTC (site TCCTGTTCTGA) = 0
AGGTTCCCATGGACCGGTTTTCCCGGTAATCCGTATTTGTG (site AGGATCCCTCA) = 0.163
CCGTTTACATGGACCGGTTTTCCCGGTAATCCGTATTTGCT (site CCGTTTACTGG) = 0
CGTCGTACATGGACCGGTTTTCCCGGTAATCCGTATTTGCT (site CGTCGTACTAG) = 1.76
ACGGCCTCATGGACCGGTTTTCCCGGTAATCCGTATTTGGT (site ACGGCCTCTAC) = 2.1
CCGAAGCCATGGACCGGTTTTCCCGGTAATCCGTATTTGGG (site CCGAAGCCTCC) = 0.0077
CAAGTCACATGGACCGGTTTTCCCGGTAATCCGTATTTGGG (site CAAGTCCCTCC) = 0.0287
CTGCGTGCATGGACCGGTTTTCCCGGTAATCCGTATTTGGT (site CTGCGTGCTAC) = 1.37

Recorded values, source the supplement of paper PMC11208160.
